Assay: glucagon-like peptide 1 release enhancers, primary assay, NCI-H716 cell line, NPC library (AID 1117341); note: reference of the scale not given here
Conditions: NCI-H716 cells, at 10 µM, stronger effect = higher value
Reported GLP1 secretion stimulation is given for each of the following compounds.
experimental-readout: GLP1 secretion stimulation (%)

> print(dat)
                                    compound        experimental.readout   val
 1  C[C@]12CCC(=O)C=C1CC[C@@H]1[C@@H]2[C@@H](O)C[C@@]2(C)[C@H]1CC[C@]2(O)C(=O)CO  GLP1 secretion stimulation   1.8
 2                 Nc1nc2ccc(OC(F)(F)F)cc2s1  GLP1 secretion stimulation   0.6
 3  CN(CCOc1ccc(CC2SC(=O)NC2=O)cc1)c1ccccn1 (stereo unspecified)  GLP1 secretion stimulation  -2.5
 4  C[C@H]1C[C@H]2[C@@H]3CCC4=CC(=O)C=C[C@]4(C)[C@@]3(Cl)[C@@H](O)C[C@]2(C)[C@@]1(O)C(=O)CO  GLP1 secretion stimulation  -0.3
 5                CS(=O)(=O)OCCCCOS(C)(=O)=O  GLP1 secretion stimulation  -1.7
 6  CON=C(C(=O)N[C@@H]1C(=O)N2C(C(=O)O)=C(C[N+]3(C)CCCC3)CS[C@H]12)c1csc(N)n1  GLP1 secretion stimulation  -0.7
 7  CCOC(=O)C1=C(COCCN)NC(C)=C(C(=O)OC)C1c1ccccc1Cl (stereo unspecified)  GLP1 secretion stimulation   0.5
 8  C[C@@H]1C[C@H]2[C@@H]3CCC4=CC(=O)C=C[C@]4(C)[C@@]3(F)[C@@H](O)C[C@]2(C)[C@@]1(O)C(=O)CO  GLP1 secretion stimulation   4.4
 9           c1ccc(CCNc2nc(-c3ccccc3)cs2)cc1  GLP1 secretion stimulation  -1.7
10                          COC(=O)/C=C(/C)N  GLP1 secretion stimulation   2.3
11  OC[C@H]1O[C@@H](n2cnc3c(=S)nc[nH]c32)[C@H](O)[C@@H]1O  GLP1 secretion stimulation  -1.6
12  O=C(CCOCCOCCOCCOCCC(=O)Nc1c(I)cc(I)c(C(=O)O)c1I)Nc1c(I)cc(I)c(C(=O)O)c1I  GLP1 secretion stimulation   0.3
13  Cc1ccccc1N=Nc1ccc(N=Nc2c(O)ccc3ccccc23)c(C)c1  GLP1 secretion stimulation  -8.5
14  COc1c(N2CCNC(C)C2)c(F)cc2c(=O)c(C(=O)O)cn(C3CC3)c12 (stereo unspecified)  GLP1 secretion stimulation  -2.4
15  CCN(CC)CCCC(C)Nc1c2ccc(Cl)cc2nc2ccc(OC)cc12 (stereo unspecified)  GLP1 secretion stimulation   7.1
16  CCCCC(=O)O[C@H]1CC[C@H]2[C@@H]3CCc4cc(O)ccc4[C@@H]3CC[C@]12C  GLP1 secretion stimulation  -4.2
17                   CCCCCC[C@@H](CCC)C(=O)O  GLP1 secretion stimulation   3.5
18  COC[C@@H](c1ccc(C(F)(F)F)cc1)N1CCN(C2(C)CCN(C(=O)c3c(C)ncnc3C)CC2)C[C@H]1C  GLP1 secretion stimulation   3.1
19  O=C1C(c2[nH]c3ccc(S(=O)(=O)O)cc3c2O)=Nc2ccc(S(=O)(=O)O)cc21  GLP1 secretion stimulation     3
20         CC(=O)N/N=C/c1ccc([N+](=O)[O-])o1  GLP1 secretion stimulation   5.7
21  COC(=O)C1=C(C)NC(C)=C(C(=O)OCC(C)=O)C1c1ccccc1[N+](=O)[O-] (stereo unspecified)  GLP1 secretion stimulation  -2.7

* * *

Test: growth inhibition of DIPG glioma cells, dose response, cell-based, SU-DIPG-IV, MIPE4.0, CellTiter-Glo, qHTS (AID 1347063);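 note: compound exposure lasted 48 hours before the viability readout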
Conditions: SU-DIPG-IV viability, CellTiter-Glo ATP luminescence
Inconclusive results are not listed. Calls of active or inactive are those of the source. No cut-off is given here; in the data, nearly all actives have AC50 up to about 30 µM.
experimental-readout: AC50

> print(dat)
                                    compound  experimental.readout                 val
 1  CC[C@H]1CN2CCc3cc(OC)c(OC)cc3[C@@H]2C[C@@H]1C[C@H]1NCCc2cc(OC)c(OC)cc21                  AC50   0.526 µM (active)
 2  CN(CCOc1ccc(CC2SC(=O)NC2=O)cc1)c1ccccn1 (stereo not drawn)                  AC50            inactive
 3                     S=c1nc[nH]c2nc[nH]c12                  AC50            inactive
 4                   Oc1c(Cl)cc(Cl)c2cccnc12                  AC50    26.4 µM (active)
 5  O=C1c2c(O)ccc(O)c2C(=O)c2c(NCCNCCO)ccc(NCCNCCO)c21                  AC50    6.62 µM (active)
 6          Cc1noc(NS(=O)(=O)c2ccc(N)cc2)c1C                  AC50            inactive
 7     CC(=O)OCC(CCn1cnc2cnc(N)nc21)COC(C)=O                  AC50            inactive
 8  CC[C@H](C)C(=O)O[C@H]1C[C@H](O)C=C2C=C[C@H](C)[C@H](CC[C@@H](O)C[C@@H](O)CC(=O)O)[C@H]21                  AC50            inactive
 9  CC1Cc2ccccc2N1NC(=O)c1ccc(Cl)c(S(N)(=O)=O)c1 (stereo not drawn)                  AC50            inactive
10  CN[C@@H]1[C@H](O)[C@H](NC)[C@H]2O[C@@]3(O)C(=O)C[C@@H](C)O[C@H]3O[C@@H]2[C@H]1O                  AC50   0.332 µM (active)
11  O=c1n(CCCN2CCN(c3cccc(Cl)c3)CC2)nc2ccccn12                  AC50            inactive
12  NC(=O)c1ccc(-c2nc(-c3ccc4c(c3)OCO4)c(-c3ccccn3)[nH]2)cc1                  AC50            inactive
13  Nc1ncn([C@@H]2O[C@H](CO)[C@@H](O)[C@H]2O)c(=O)n1                  AC50   0.935 µM (active)
14  CCCCNc1cc(C(=O)O)cc(S(N)(=O)=O)c1Oc1ccccc1                  AC50            inactive
15                           NNC(=O)c1ccncc1                  AC50            inactive
16  CC(=O)O[C@]1(C(C)=O)CC[C@H]2[C@@H]3C=C(C)C4=CC(=O)CC[C@]4(C)[C@H]3CC[C@@]21C                  AC50    8.33 µM (active)
17  COc1cc2ncn(-c3cc(OCc4ccccc4S(C)(=O)=O)c(C#N)s3)c2cc1OC                  AC50            inactive
18  Cc1cccc(Nc2ccncc2S(=O)(=O)NC(=O)NC(C)C)c1                  AC50            inactive
19  Cc1ccccc1C(OCCN(C)C)c1ccccc1 (stereo not drawn)                  AC50            inactive
20                 CCCc1cc(=O)[nH]c(=S)[nH]1                  AC50            inactive
21                c1ccc2[nH]c(-c3cscn3)nc2c1                  AC50            inactive
22  COc1cc([C@@H]2c3cc4c(cc3[C@H](O)[C@H]3COC(=O)[C@H]23)OCO4)cc(OC)c1OC                  AC50            inactive
23  CCC(C)(C)C(=O)O[C@H]1C[C@@H](C)C=C2C=C[C@H](C)[C@H](CC[C@@H]3C[C@@H](O)CC(=O)O3)[C@H]21                  AC50    18.7 µM (active)
24        NS(=O)(=O)c1cc2c(cc1Cl)NCNS2(=O)=O                  AC50            inactive
25  CC(C)Cc1ccc(C(C)C(=O)O)cc1 (stereo not drawn)                  AC50            inactive
26  CCc1cccc2c3c([nH]c12)C(CC)(CC(=O)O)OCC3 (stereo not drawn)                  AC50            inactive
27                           N[C@@H]1CONC1=O                  AC50            inactive
28  CC(C)C1CCC(C(=O)N[C@H](Cc2ccccc2)C(=O)O)CC1 (stereo partly drawn)                  AC50            inactive
29  CC1(C)O[C@@H]2C[C@H]3[C@@H]4CCC5=CC(=O)C=C[C@]5(C)[C@@]4(F)[C@@H](O)C[C@]3(C)[C@]2(C(=O)CO)O1                  AC50            inactive
30  C[C@@H]1CC(=O)NN=C1c1ccc(NN=C(C#N)C#N)cc1                  AC50    23.5 µM (active)
31             CCc1nc(N)nc(N)c1-c1ccc(Cl)cc1                  AC50            inactive
32  COc1cc2nc(N3CCN(C(=O)c4ccco4)CC3)nc(N)c2cc1OC                  AC50    26.4 µM (active)
33  CN1CCCC(n2nc(Cc3ccc(Cl)cc3)c3ccccc3c2=O)CC1 (stereo not drawn)                  AC50    6.62 µM (active)
34  CN(C)CCOc1ccc(-c2nc(-c3ccc4c(c3)CC/C4=N\O)c(-c3ccncc3)[nH]2)cc1                  AC50    13.2 µM (active)
35       NS(=O)(=O)c1cc2c(cc1Cl)NC=NS2(=O)=O                  AC50            inactive
36  Cc1ncc([N+](=O)[O-])n1CC(C)O (stereo not drawn)                  AC50            inactive
37  COc1cc2ncn(-c3cc(OCc4ccccc4C(F)(F)F)c(C(N)=O)s3)c2cc1OC                  AC50    14.8 µM (active)
38                CCN(CC)C(=S)SSC(=S)N(CC)CC                  AC50  0.0209 µM (active)
39  OCCN1CCN(CCCN2c3ccccc3Sc3ccc(C(F)(F)F)cc32)CC1                  AC50    18.7 µM (active)
40  C#C[C@]1(O)CC[C@H]2[C@@H]3CCC4=CC(=O)CC[C@@H]4[C@H]3CC[C@@]21CC                  AC50            inactive
41  Cn1cc(C2=C(c3c4n(c5ccccc35)CCC(CN)C4)C(=O)NC2=O)c2ccccc21 (stereo not drawn)                  AC50    18.7 µM (active)
42                Cn1c(=O)c2[nH]cnc2n(C)c1=O                  AC50            inactive
43  CN(C)CCc1c[nH]c2ccc(C[C@H]3COC(=O)N3)cc12                  AC50            inactive

Entry source: PubChem BioAssay
